- Study System: UniProt:Q9NRA0
- Sequence (Q9NRA0 1-654): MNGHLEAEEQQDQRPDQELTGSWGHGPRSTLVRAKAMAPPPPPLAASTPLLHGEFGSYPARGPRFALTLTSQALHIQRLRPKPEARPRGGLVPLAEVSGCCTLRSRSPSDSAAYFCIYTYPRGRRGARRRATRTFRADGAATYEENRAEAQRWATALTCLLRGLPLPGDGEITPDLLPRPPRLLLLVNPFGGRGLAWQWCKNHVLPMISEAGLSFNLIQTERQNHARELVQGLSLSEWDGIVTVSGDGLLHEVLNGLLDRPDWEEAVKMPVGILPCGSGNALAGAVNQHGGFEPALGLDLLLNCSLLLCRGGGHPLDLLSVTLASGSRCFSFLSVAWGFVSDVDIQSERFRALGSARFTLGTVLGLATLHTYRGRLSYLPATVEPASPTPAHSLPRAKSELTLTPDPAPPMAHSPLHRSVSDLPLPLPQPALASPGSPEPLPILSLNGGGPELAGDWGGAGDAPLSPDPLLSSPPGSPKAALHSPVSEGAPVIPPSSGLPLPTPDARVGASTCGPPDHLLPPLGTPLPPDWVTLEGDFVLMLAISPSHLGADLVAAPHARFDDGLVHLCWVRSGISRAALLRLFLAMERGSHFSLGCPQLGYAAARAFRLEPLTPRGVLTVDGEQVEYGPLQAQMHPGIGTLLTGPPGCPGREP
- Protocol Description: SK2 inhibition (Ki)
- Assay type: biochemical
pKi: −log10 of the molar value.

Query Smiles	Study System	pKi
CCCCCOc1ccc2cc(-c3noc([C@@H]4[C@@H](O)CCN4C(=N)N)n3)ccc2c1	UniProt:Q9NRA0	6.48

---

- Study System: UniProtKB Q9NYA1
- Sequence (Q9NYA1 whole entry): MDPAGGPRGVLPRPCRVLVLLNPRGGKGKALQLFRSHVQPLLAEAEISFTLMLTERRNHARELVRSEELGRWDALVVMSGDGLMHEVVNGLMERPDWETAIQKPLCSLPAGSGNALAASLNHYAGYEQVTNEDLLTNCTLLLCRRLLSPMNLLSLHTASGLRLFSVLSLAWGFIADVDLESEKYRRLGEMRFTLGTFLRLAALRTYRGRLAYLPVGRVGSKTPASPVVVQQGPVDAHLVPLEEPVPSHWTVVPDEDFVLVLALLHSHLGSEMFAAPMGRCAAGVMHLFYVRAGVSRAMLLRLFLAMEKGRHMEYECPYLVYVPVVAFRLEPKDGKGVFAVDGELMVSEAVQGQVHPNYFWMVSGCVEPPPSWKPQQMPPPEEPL
- Protocol Description: SK1 inhibition (Ki)
- Type: biochemical
pKi: −log10 of the molar value.
Readout Name: pKi

Compound	Readout Name	Experimental Result
CCCCCOc1ccc2cc(-c3noc([C@@H]4[C@@H](O)CCN4C(=N)N)n3)ccc2c1 [SLC5111312]	pKi	6.44

---

- Test system: CHIKV
- Protocol Description: CHIKV infection of HeLa cells, immunofluorescence high-content imaging
- Format: cell-based, Chikungunya virus (clone 181/25)
- Condition Summary: Chikungunya virus, HeLa, HeLa cells, CHIKV infection, increasing concentration of inhibitor
pEC50: −log10 of the molar value.
We begin with a simple list: items and their reported pEC50.
Readout Name: pEC50

Molecule	Study System	Readout Name	Experimental Result
CCCCCOc1ccc2cc(-c3noc([C@@H]4[C@@H](O)CCN4C(=N)N)n3)ccc2c1 [SLC5111312]	CHIKV	pEC50	4.93
N=C(N)N1CCC[C@H]1Cc1nc(-c2ccc(Oc3nc(Br)cs3)cc2)no1 [SLC4091425]	CHIKV	pEC50	5.47
CCCCCCCCCCCCc1ccc(CN2CCCC2CO)cc1 (stereo not shown) [SLL3071511]	CHIKV	pEC50	5.54
CCCCCCCCCCCCc1ccc(CN(C)C2CCCC2O)cc1 (stereo not shown) [SLL3041783]	CHIKV	pEC50	5.48

---

- Study System: human SK2 (Homo sapiens, UniProt Q9NRA0)
- Protocol Description: SK2 inhibition (Ki)
- Type: biochemical
- Condition Summary: read-out: SK2 Ki
pKi: −log10 of the molar value.
We begin with a simple list: items and their reported pKi.
Readout Name: pKi

Compound	Experimental Result
CCCCCCCCCCCCc1ccc(CN2CCCC2CO)cc1 (stereo not drawn)	6.18
CCCCCCCCCCCCc1ccc(CN(C)C2CCCC2O)cc1 (stereo not drawn)	< 5.52
N=C(N)N1CCC[C@H]1Cc1nc(-c2ccc(Oc3nc(Br)cs3)cc2)no1	< 5.52

From: paper PMC9229564
